All values here come from ChEMBL document CHEMBL3751813.

Reported MIC values for a set of compounds
- Test system: Staphylococcus aureus
- experiment: Antibacterial activity against clinical isolates of Staphylococcus aureus DM4001R after 24 hrs by […]
- Assay type: functional
The response must be a number in µg/mL with no trailing unit.

- compound_smiles: "CCN(CC)CCCOc1cc2oc3cc(OCCCN(CC)CC)c(OC)c(CC=C(C)C)c3c(=O)c2c(O)c1CC=C(C)C"
  MIC [µg/mL]: 0.78
- compound_smiles: "COc1c(OCCCCN2CCN(C)CC2)cc2oc3cc(OCCCCN4CCN(C)CC4)c(CC=C(C)C)c(O)c3c(=O)c2c1CC=C(C)C"
  MIC [µg/mL]: 6.25
- compound_smiles: "COc1c(OCCCCN2CC[C@H](N(C)C)C2)cc2oc3cc(OCCCCN4CC[C@H](N(C)C)C4)c(CC=C(C)C)c(O)c3c(=O)c2c1CC=C(C)C"
  MIC [µg/mL]: 12.5

Task item: Consider the compound CCCN(CC)CCCCOc1cc2oc3cc(OCCCCN(CC)CCC)c(OC)c(CC=C(C)C)c3c(=O)c2c(O)c1CC=C(C)C and give its recorded MIC.
Reply: 6.25

Task item: Determine its reported MIC: CCCN(C)CCCCOc1cc2oc3cc(OCCCCN(C)CCC)c(OC)c(CC=C(C)C)c3c(=O)c2c(O)c1CC=C(C)C
Reply: 25

====

Property: HC50 at 1 h; scope: individual compounds
- experiment: Hemolytic activity against New Zealand white rabbit RBC after 1 hr by microplate reader analysis
- Format: ADME, cell-based, Oryctolagus cuniculus, Erythrocyte
- assay_context: rabbit red blood cells

Task item: Give HC50 at 1 h for CCN(CC)CCCCCCCCCCOc1cc2oc3cc(OCCCCCCCCCCN(CC)CC)c(OC)c(CC=C(C)C)c3c(=O)c2c(O)c1CC=C(C)C
Reply: 200 µg/mL

====

- Tested on: Staphylococcus aureus
- experiment: Antibacterial activity against clinical isolates of methicillin-resistant Staphylococcus aureus DM21455 after 24 hrs by […]
- Format: functional
- assay_context: DM21455, 24 h
measured_metric: MIC (µg/mL)
Give the value, in units of µg/mL, as a plain number.

Consider the reported MIC for these molecules:
- compound_smiles: "CCCN(C)CCCCOc1cc2oc3cc(OCCCCN(C)CCC)c(OC)c(CC=C(C)C)c3c(=O)c2c(O)c1CC=C(C)C"
  unit_of_measure: "µg/mL"
  MIC: 12.5
- compound_smiles: "CCCCCN(C)CCCCOc1cc2oc3cc(OCCCCN(C)CCCCC)c(OC)c(CC=C(C)C)c3c(=O)c2c(O)c1CC=C(C)C"
  unit_of_measure: "µg/mL"
  MIC: 25
- compound_smiles: "CCN(CC)CCCCOc1cc2oc3cc(OCCCCN(CC)CC)c(OC)c(CC=C(C)C)c3c(=O)c2c(OCCCCN(CC)CC)c1CC=C(C)C"
  unit_of_measure: "µg/mL"
  MIC: 25
- compound_smiles: "COc1c(OCCCCN2CCN(CCN(C)C)CC2)cc2oc3cc(OCCCCN4CCN(CCN(C)C)CC4)c(CC=C(C)C)c(O)c3c(=O)c2c1CC=C(C)C"
  unit_of_measure: "µg/mL"
  MIC: 3.12
- compound_smiles: "CCN(CC)CCCOc1cc2oc3cc(OCCCN(CC)CC)c(OC)c(CC=C(C)C)c3c(=O)c2c(O)c1CC=C(C)C"
  unit_of_measure: "µg/mL"
  MIC: 0.39
- compound_smiles: "COc1c(OCCCCN2CC[C@H](N(C)C)C2)cc2oc3cc(OCCCCN4CC[C@H](N(C)C)C4)c(CC=C(C)C)c(O)c3c(=O)c2c1CC=C(C)C"
  unit_of_measure: "µg/mL"
  MIC: 6.25
- compound_smiles: "COc1c(OCCCCN2CCCC2)cc2oc3cc(OCCCCN4CCCC4)c(CC=C(C)C)c(O)c3c(=O)c2c1CC=C(C)C"
  unit_of_measure: "µg/mL"
  MIC: 1.56
- compound_smiles: "CCN(CC)CCCCCCOc1cc2oc3cc(OCCCCCCN(CC)CC)c(OC)c(CC=C(C)C)c3c(=O)c2c(O)c1CC=C(C)C"
  unit_of_measure: "µg/mL"
  MIC: 1.56

Consider now this further molecule.
Task item: Please give measured MIC of the following entry: CCN(CCCCOc1cc2oc3cc(OCCCCN(CC)C(C)C)c(OC)c(CC=C(C)C)c3c(=O)c2c(O)c1CC=C(C)C)C(C)C
Reply: 25

====

We begin with a simple list: items and their reported MIC.
- Tested on: Bacillus cereus
- experiment: Antibacterial activity against clinical isolates of Bacillus cereus ATCC 11778 after 24 hrs by […]
- Assay type: functional
- assay_context: ATCC 11778, 24 h
Provide only the numeric value, understood in µg/mL.

Use the examples below as a reference point.
- compound_smiles: "CCCN(C)CCCCOc1cc2oc3cc(OCCCCN(C)CCC)c(OC)c(CC=C(C)C)c3c(=O)c2c(O)c1CC=C(C)C"
  tgt: "Bacillus cereus"
  MIC [µg/mL]: 12.5
- compound_smiles: "COc1c(OCCCCNC(=N)N)cc2oc3cc(OCCCCNC(=N)N)c(CC=C(C)C)c(O)c3c(=O)c2c1CC=C(C)C"
  tgt: "Bacillus cereus"
  MIC [µg/mL]: 6.25
- compound_smiles: "CCN1CCN(CCCCOc2cc3oc4cc(OCCCCN5CCN(CC)CC5)c(OC)c(CC=C(C)C)c4c(=O)c3c(O)c2CC=C(C)C)CC1"
  tgt: "Bacillus cereus"
  MIC [µg/mL]: 25
- compound_smiles: "COc1c(OCCCCN(CCO)CCO)cc2oc3cc(OCCCCN(CCO)CCO)c(CC=C(C)C)c(O)c3c(=O)c2c1CC=C(C)C"
  tgt: "Bacillus cereus"
  MIC [µg/mL]: 3.12

Task item: Please give measured MIC of the following entry: CCN(CC)CCCCCCOc1cc2oc3cc(OCCCCCCN(CC)CC)c(OC)c(CC=C(C)C)c3c(=O)c2c(O)c1CC=C(C)C
Reply: 3.12

====

- experiment: Membrane permeabilization activity assessed as release of calcein from DOPE/DOPG large unilamellar vesicles at 0.125 to 0.5 compound:lipid ratio incubated for 30 mins by fluorescence assay
- Assay type: ADME
- assay_context: 0.5 h
We begin with a simple list: items and their reported Activity.

Consider the reported Activity for these compounds:
- compound_smiles: "CCN(CC)CCCCCCCCOc1cc2oc3cc(OCCCCCCCCN(CC)CC)c(OC)c(CC=C(C)C)c3c(=O)c2c(O)c1CC=C(C)C"
  Activity: "> 70%"
- compound_smiles: "CCN(CC)CCCCCCCCCCCCOc1cc2oc3cc(OCCCCCCCCCCCCN(CC)CC)c(OC)c(CC=C(C)C)c3c(=O)c2c(O)c1CC=C(C)C"
  Activity: "60%"
- compound_smiles: "CCN(CC)CCCCOc1cc2oc3cc(OCCCCN(CC)CC)c(OC)c(CC=C(C)C)c3c(=O)c2c(O)c1CC=C(C)C"
  Activity: "> 70%"

With those in mind, consider the next compound.
Task item: For CCN(CC)CCCCCCCCCCOc1cc2oc3cc(OCCCCCCCCCCN(CC)CC)c(OC)c(CC=C(C)C)c3c(=O)c2c(O)c1CC=C(C)C , write its Activity.
Reply: > 70%

====

Collected HC50 at 1 h values appear next to each entry.
- experiment: Hemolytic activity against New Zealand white rabbit RBC after 1 hr by microplate reader analysis
- Type: ADME, cell-based, Oryctolagus cuniculus, Erythrocyte
- assay_context: rabbit red blood cells
Just the number in µg/mL, nothing appended.

The examples below pair each entry with its known result.
- compound_smiles: "CCN(CCO)CCCCOc1cc2oc3cc(OCCCCN(CC)CCO)c(OC)c(CC=C(C)C)c3c(=O)c2c(O)c1CC=C(C)C"
  unit_of_measure: "µg/mL"
  HC50 at 1 h: 31.8
- compound_smiles: "COc1c(OCCCCN2CC[C@H](N(C)C)C2)cc2oc3cc(OCCCCN4CC[C@H](N(C)C)C4)c(CC=C(C)C)c(O)c3c(=O)c2c1CC=C(C)C"
  unit_of_measure: "µg/mL"
  HC50 at 1 h: 28.9
- compound_smiles: "CCN(CC)CCCCOc1cc2oc3cc(OCCCCN(CC)CC)c(OC)c(CCC(C)C)c3c(=O)c2c(O)c1CCC(C)C"
  unit_of_measure: "µg/mL"
  HC50 at 1 h: 48.6

Task item: Let me know recorded HC50 at 1 h for CCN1CCN(CCCCOc2cc3oc4cc(OCCCCN5CCN(CC)CC5)c(OC)c(CC=C(C)C)c4c(=O)c3c(O)c2CC=C(C)C)CC1 , thanks.
Reply: 138

====

- experiment: Membrane permeabilization activity assessed as release of calcein from DOPE/DOPG liposomes at lipid:compound ratio of => 16 incubated for 30 mins by fluorescence assay
- Type: ADME
- assay_context: 0.5 h
measured_metric: Activity

Use these answered entries as a reference point.
- compound: "CCN(CC)CCCCOc1ccc2c(=O)c3c(O)cc(OCCCCN(CC)CC)cc3oc2c1"
  Activity: "Not Active"
- compound: "O=c1c2ccc(O)cc2oc2cc(O)cc(O)c12"
  Activity: "Not Active"
- compound: "COc1c(O)cc2oc3cc(O)c(CCC(C)C)c(O)c3c(=O)c2c1CCC(C)C"
  Activity: "Not Active"
- compound: "COc1c(O)cc2oc3cc(O)c(CC=C(C)C)c(O)c3c(=O)c2c1CC=C(C)C [MANGOSTIN]"
  Activity: "< 10%"

Proceed to the following item.
Task item: Tell us which Activity value is on record for CCN(CC)CCCCOc1cc2oc3cc(OCCCCN(CC)CC)c(OC)c(CC=C(C)C)c3c(=O)c2c(O)c1CC=C(C)C
Reply: > 70%
